# assay procedure: Toxicity liver stage against HepG2, at 10uM
# Assay type: cell-based
# Set-up: test concentration 10 uM, cell line HepG2-A16-CD81EGFP
# assay setup: human, HepG2-A16-CD81EGFP cells; read-out: INHIBITION
# if value of cytotoxicity at 10 µM reaches -10%, tag 1.0; if it stays below, tag 0.0

Challenge: Textbook exercise: given the entry `CC(=O)N1CCC(Oc2ccc(C#N)cc2)CC1` , state whether its cytotoxicity at 10 µM is greater than or equal to -10%.
Response given: 0.0

Challenge: Would you mind doing `Cc1ccc(NCc2cn3c(n2)CN(Cc2ccoc2)CC3)nn1` as well?
Response given: 1.0

Challenge: Can you handle `N#Cc1cc(CSCCN2CCOCC2)ccc1F` next?
Response given: 1.0

Challenge: Now give it for `Cc1nc(CN2CCO[C@H]3[C@@H](OCc4cccnc4)CC[C@@H]32)cs1` too.
Response given: 1.0

Challenge: Another compound: COCC(=O)NCC(Cc1cccc(F)c1)n1cccc1 (stereo not drawn)
Response given: 1.0

Challenge: Try the compound `FC(F)(F)CCc1ccnc(N2CCN(Cc3ccncc3)CC2)n1`
Response given: 0.0

Challenge: # iterate: `O=c1ccc2c(n1Cc1ccncc1)CCN(Cc1ccoc1)CC2`
Response given: 0.0

###

# assay procedure: Toxicity liver stage against HepG2, at 10uM
# Format: cell-based
# Design: test concentration 10 uM, cell line HepG2-A16-CD81EGFP
# assay setup: human, HepG2-A16-CD81EGFP cells; read-out: INHIBITION
measurement name: cytotoxicity at 10 µM (%)
Your answer is read as %, so omit the unit and give the number.

Challenge: Can you share its cytotoxicity at 10 µM? I mean this compound: `O=C(c1cnco1)N1C[C@@H]2CC[C@H](Oc3cccc(F)c3)[C@@H]2C1`
Response given: -6.18

Challenge: // repeat for CN1CCC2(Cc3ccccc3CN(C(=O)c3ccc(Cl)cc3)C2)C1 (stereo not drawn) and report
Response given: -3.12

Challenge: Now the same for CCCC1(CO)CCCN(C(=O)CN2CCN(CC)CC2)C1 (stereo not drawn)
Response given: 0.854

Challenge: Would you kindly repeat that for CS(=O)(=O)N1CCCCC1c1ccc(Nc2cnccn2)nc1 (stereo not drawn) ?
Response given: 6.39

Challenge: Field entry: `O=c1[nH]nc(C2CC2)n1-c1cccc(Cl)c1`
Response given: -3.11

Challenge: Same read-out for COC(=O)C(NC(=O)CC(C)C)c1cc(F)ccc1F (stereo not drawn) ?
Response given: -0.481

Challenge: Note, next up: `Cc1ncc2c(n1)CN(Cc1nc3ccccc3o1)CC2`
Response given: -0.602

Challenge: Would you mind doing N#CCCN(CC1CCCO1)C(=O)c1ccc2nonc2c1 (stereo not drawn) as well?
Response given: 1.35

Challenge: Next record, please: `COc1ccc(F)c(NCC(C)(C)S(C)(=O)=O)c1`
Response given: -3.18

Challenge: Param item: `O=C(N[C@@H]1CCN(c2nc3ccccc3o2)C[C@H]1O)c1cnccn1`
Response given: 3.52

Challenge: Next compound: `Cn1ccnc1CNC(=O)c1ccnc(C2CCNCC2)c1`
Response given: 5.8

Challenge: Further, for `CN(C(=O)CN1CCC(c2cc3ccccc3[nH]2)CC1)C1CC1` ?
Response given: 1.95

Challenge: What about this compound? `CCCN1CCc2nc(SCc3ccc(F)cc3)[nH]c(=O)c2C1`
Response given: -3.37

Challenge: Try the compound CCn1c(C)nnc1CN(C)C1CCN(CCS(=O)(=O)CC)C1 (stereo not drawn)
Response given: -1.17

Challenge: Next compound up: CN1CCCC1c1ccc(C(=O)Nc2c3c(nn2C)CCC3)s1 (stereo not drawn)
Response given: -7.3

Challenge: Would you kindly repeat that for `Cn1ncc2c(N3CC(N4CCCCC4)C3)nc(C3CCCC3)nc21` ?
Response given: -5.07

Challenge: Again, but for CCn1ccc(C(=O)N2CCOC(c3nc(-c4cccs4)no3)C2)n1 (stereo not drawn)
Response given: 10.9

Challenge: Would you mind doing `CC[C@H]1CN(S(C)(=O)=O)CC[C@H]1CC(=O)NCCSC` as well?
Response given: 3.45

All values here come from ChEMBL document CHEMBL4513216.
